Origin of values: the supplement of paper PMC11208160

- ASSAY_TEXT: recombinant barcode read abundance after kanamycin selection (control-corrected) (log10(CPM+1)); higher = more efficient recombination; sequences stand for … in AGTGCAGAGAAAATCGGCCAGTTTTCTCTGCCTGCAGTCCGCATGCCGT…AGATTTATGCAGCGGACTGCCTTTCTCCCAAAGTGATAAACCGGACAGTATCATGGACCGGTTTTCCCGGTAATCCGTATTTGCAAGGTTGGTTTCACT; site = the 11-nt target;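 further: IS621 recombinase and bridge RNA in Escherichia coli cells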
OUTCOME_MEASURE: recombinant barcode read abundance (log10)
Kindly provide the number alone.

Input CTAAGTTCTTGGGTTCTAACCTGTTGCGT (site CTACGTACTAC) , output reported recombinant barcode read abundance (log10).
0.0986

Input TCGGGGACTTGGGTTCTAACCTGTTGCCG (site TCGGGGACTCG) , output reported recombinant barcode read abundance (log10).
0.601

Input CCTCATTCTTGGGTTCTAACCTGTTGCTT (site CCTCAATCTAA) , output reported recombinant barcode read abundance (log10).
0.0648

Input CTAATATCTTGGGTTCTAACCTGTTGCTA (site CTAATATCTTA) , output reported recombinant barcode read abundance (log10).
0.512

Input GGGTCTTCTTGGGTTCTAACCTGTTGCAT (site GGGGCTTCTAT) , output reported recombinant barcode read abundance (log10).
0.0588

Input GCGCGAACTTGGGTTCTAACCTGTTGCCT (site GCCCGAACTAG) , output reported recombinant barcode read abundance (log10).
0.047

Input GTACGTCCTTGGGTTCTAACCTGTTGCAT (site GTACGTCCTAA) , output reported recombinant barcode read abundance (log10).
0.133

Input AGAAATTCTTGGGTTCTAACCTGTTGCCT (site AGAAATTCTAG) , output reported recombinant barcode read abundance (log10).
0.52

Input GGGGCGCCTTGGGTTCTAACCTGTTGCCT (site GGGGCGTCTAG) , output reported recombinant barcode read abundance (log10).
0.279

Input CAGATCCCTTGGGTTCTAACCTGTTGCCT (site CGGATCCCTAG) , output reported recombinant barcode read abundance (log10).
0.0247
